Numbers sourced from the supplement of paper PMC6757056.

B1: library; a variant is named by its letters at N, in order (parent)
chain: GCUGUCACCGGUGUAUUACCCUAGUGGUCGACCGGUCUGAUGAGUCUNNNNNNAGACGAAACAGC

variants of: B1; assay: normalized RNA/DNA level with ligand (relative to sTRSVctl = 100) (log10 (% of sTRSVctl)); ligand: hypoxanthine (xanthine aptamer); higher = less ribozyme self-cleavage, higher mRNA level; conditions: ligand concentration (+) RNA-Seq: 5 mM, HEK293T, reporter: mCherry (pCS4076), ligand present: yes
recordedMetric: normalized RNA/DNA level with ligand (log10)
One number for each entry.

Query block: Which normalized RNA/DNA level with ligand (log10) is reported for this variant? UAGGUC
Result block: 1.98

Query block: Query: normalized RNA/DNA level with ligand (log10); subject: CGACAG
Result block: 1.93

Query block: Bench note: what normalized RNA/DNA level with ligand (log10) did AAGCUA show?
Result block: 1.91

Provide normalized RNA/DNA level with ligand (log10) for all items below, preserving their order.
1. CUAGUC
2. CUUUCA
3. GAUGAA
4. CUACGC

Result block:
1: 1.99; 2: 1.92; 3: 1.89; 4: 1.96

For each of the variants below, state normalized RNA/DNA level with ligand (log10).
1. CUCGAA
2. CAGGGA
3. UAGUCU

Result block:
1. 1.92
2. 1.95
3. 1.96

Query block: What measured normalized RNA/DNA level with ligand (log10) goes with AAUUUG ?
Result block: 1.87
